Every entry's value here was drawn from ChEMBL document CHEMBL3763128.

Here, each record is paired with measured MIC data.
Test system: Streptococcus pyogenes
Assay: Antibacterial activity against inducibly macrolide-lincosamide-streptogramin B resistant Streptococcus pyogenes by agar microdilution method
Type: functional

Input CC[C@@H]1OC(=O)[C@H](C)[C@@H](O[C@@H]2C[C@](C)(OC)[C@H](O)[C@@H](C)O2)[C@@H](C)[C@@H](O[C@@H]2O[C@H](C)C[C@H](N(C)C)[C@H]2O)[C@](C)(O)C[C@@H](C)CN(C)[C@H](C)[C@@H](O)[C@]1(C)O , output reported MIC. > 64 µg/mL

Indicate the recorded MIC value for this molecule: CCC1OC(=O)[C@H](C)[C@@H](O[C@H]2C[C@@](C)(OC)[C@@H](OC(=O)CNCCCNCCOCCNc3cc4c(cc3F)c(=O)c(C(=O)O)cn4C3CC3)[C@H](C)O2)C(C)[C@@H](O[C@@H]2O[C@H](C)C[C@H](N(C)C)[C@H]2O)[C@](C)(O)C[C@@H](C)CN(C)[C@H](C)[C@@H](O)[C@]1(C)O (single isomer, unassigned) 0.5 µg/mL

Given CCC1OC(=O)[C@H](C)[C@@H](O[C@H]2C[C@@](C)(OC)[C@@H](OC(=O)CNCCNC(=O)CSc3cnc4ccccc4n3)[C@H](C)O2)C(C)[C@@H](O[C@@H]2O[C@H](C)C[C@H](N(C)C)[C@H]2O)[C@](C)(O)C[C@@H](C)CN(C)[C@H](C)[C@@H](O)[C@]1(C)O (single isomer, unassigned) , respond with its MIC. 1 µg/mL

Note down MIC recorded for CCC1OC(=O)[C@H](C)[C@@H](O[C@H]2C[C@@](C)(OC)[C@@H](OC(=O)CNC(=O)CCNCCOCCNc3cc4c(=O)c(C(=O)O)cn(C5CC5)c4cc3Cl)[C@H](C)O2)C(C)[C@@H](O[C@@H]2O[C@H](C)C[C@H](N(C)C)[C@H]2O)[C@](C)(O)C[C@@H](C)CN(C)[C@H](C)[C@@H](O)[C@]1(C)O (single isomer, unassigned) 0.5 µg/mL
